# Tested on: Aβ42 production in H4 cells stably transfected with APP751 containing the Swedish mutation (H4 APP751 SWE clone 8.20)
# Test summary: Cellular assay for inhibition of Aβ1-42 production (H4 APP751 SWE clone 8.20)
# Assay type: cell-based
# Protocol conditions: H4 APP751 SWE clone 8.20 cells, 19 h incubation; Table 5B, 6-heterocyclic thiazine examples
Readout kind: log10(IC50) (log10 of the value in nM)
Hello, just confirming the data are log10 of IC50 with units of nM.

Prompt: For Cc1ncsc1[C@@H]1C[C@@H](c2cccc(-c3cncnc3)c2)N=C(N)S1 (racemic) , what is its reported log10(IC50)?
Response: 3.00

Prompt: Sample `Cc1noc(C)c1[C@@H]1C[C@@](C)(c2cc(-c3cccnc3C#N)c(F)cc2F)N=C(N)S1` — what was its log10(IC50)?
Response: 1.94

Prompt: Could you tell me which log10(IC50) is on file for NC1=N[C@H](c2cccc(-c3cncnc3)c2)C[C@@H](c2ccccn2)S1 (racemic) ?
Response: 3.30

Prompt: // lookup log10(IC50) for `COc1ncccc1-c1cc([C@]2(C)C[C@@H](c3c(C)noc3C)SC(N)=N2)c(F)cc1F`
Response: 2.83

Prompt: State the recorded log10(IC50) for this entry: `Cc1nc(C)c([C@@H]2C[C@@](C)(c3cc(-c4cncnc4)c(F)cc3F)N=C(N)S2)s1`
Response: 2.32

Prompt: So what's the measured log10(IC50) for this one? Cc1noc(C)c1[C@@H]1C[C@@H](c2cc(-c3cncnc3)c(F)cc2F)N=C(N)S1 (single isomer, unassigned) [Example 29A]
Response: 1.78

Prompt: Consider the molecule `CC#Cc1cncc(-c2cc(Cl)c([C@]3(C)C[C@@H](c4c(C)noc4C)SC(N)=N3)s2)c1` and give its measured log10(IC50).
Response: 1.48

Prompt: Would you kindly share the measured log10(IC50) for `COc1ncc(-c2cc([C@]3(C)C[C@@H](c4c(C)noc4C)SC(N)=N3)c(F)cc2F)cn1` ?
Response: 2.08

Prompt: log10(IC50) for `Cc1nc(C)c([C@@H]2C[C@@](C)(c3cc(-c4cncnc4)c(F)cc3F)N=C(N)S2)o1` ?
Response: 2.03

Prompt: Tell me the measured log10(IC50) of Cc1nn(C)cc1[C@@H]1C[C@@H](c2cccc(-c3cncnc3)c2)N=C(N)S1 (racemic) , please.
Response: 3.40

Prompt: I would be grateful if you could share the reported log10(IC50) for `CC[C@@]1(c2ccc(F)cc2F)C[C@@H](c2c(C)noc2C)SC(N)=N1` .
Response: 3.11

Prompt: Please look up its log10(IC50): `Cc1noc(C)c1[C@@H]1C[C@@](C)(c2ccc(F)cc2F)N=C(N)S1`
Response: 2.18

Prompt: I have this molecule here, `COc1ccc(-c2cc([C@]3(C)C[C@@H](c4c(C)noc4C)SC(N)=N3)c(F)cc2F)cn1` , and I need its recorded log10(IC50).
Response: 2.51

Prompt: I have this molecule here, Cc1oncc1[C@]1(C)C[C@@H](c2cc(-c3cncnc3)c(F)cc2F)N=C(N)S1 (racemic) , and I need its recorded log10(IC50).
Response: 2.26

Prompt: Quick check: log10(IC50) of NC1=N[C@H](c2cccc(-c3cncnc3)c2)C[C@@H](c2cnccn2)S1 (racemic) ?
Response: 3.38

Prompt: Request the reported log10(IC50) associated with Cc1noc(C)c1[C@@H]1C[C@@H](c2cccc(-c3cncnc3)c2)N=C(N)S1 (racemic)
Response: 2.36

Prompt: Give the measured log10(IC50) of `Cc1noc(C)c1[C@@H]1C[C@@](C)(c2cc(-c3cncc(O)c3)c(F)cc2F)N=C(N)S1` .
Response: 2.48

Prompt: Tell me the measured log10(IC50) of Cc1c([C@@H]2C[C@@H](c3cccc(-c4cncnc4)c3)N=C(N)S2)cnn1C (racemic) , please.
Response: 3.53

Prompt: Recorded log10(IC50) for `Cc1noc(CC(C)(C)O)c1[C@@H]1C[C@@](C)(c2ccc(F)cc2F)N=C(N)S1` , please?
Response: 2.04

Prompt: Can you look up the measured log10(IC50) of Cc1noc(C)c1[C@@H]1C[C@@H](c2cc(NC(=O)c3ccc(Br)cn3)ccc2F)N=C(N)S1 (racemic) for me?
Response: 1.34

Prompt: Value lookup for log10(IC50); key = `Cc1noc(C)c1[C@@H]1C[C@@](C)(c2cc(-c3cncnc3)c(F)cc2F)N=C(N)S1`
Response: 0.90

Prompt: Any idea what log10(IC50) was measured for Cc1noc(C)c1[C@@H]1C[C@@H](c2cc(-c3cncnc3)c(F)cc2F)N=C(N)S1 (racemic) [Example 29] ?
Response: 2.30

Prompt: Tell me the measured log10(IC50) of `Cc1noc(C)c1[C@@H]1C[C@@](C)(c2cc(F)cc(F)c2)N=C(N)S1` , please.
Response: 2.43

Prompt: Given `Cn1nccc1[C@@H]1C[C@@](C)(c2ccc(F)cc2F)N=C(N)S1` , state its recorded log10(IC50).
Response: 2.52

Prompt: Record request: log10(IC50) value, item `Cc1ncc(-c2cc([C@]3(C)C[C@@H](c4c(C)noc4C)SC(N)=N3)c(F)cc2F)cn1`
Response: 2.27

Prompt: # input molecule: `CC(=O)c1cc([C@]2(C)C[C@@H](c3c(C)noc3C)SC(N)=N2)c(F)cc1F` ; wanted: its log10(IC50)
Response: 2.34

Prompt: # input molecule: `Cc1noc(C)c1[C@@H]1C[C@@](C)(c2cc(-c3cnccc3C(F)(F)F)c(F)cc2F)N=C(N)S1` ; wanted: its log10(IC50)
Response: 2.83

Prompt: Give its log10(IC50) value. Item: Cc1noc(C)c1[C@]1(C)C[C@@H](c2cc(-c3cncnc3)c(F)cc2F)N=C(N)S1 (racemic)
Response: 3.43

Prompt: Consider the molecule Cc1noc(C)c1[C@@H]1C[C@@H](c2cc(-c3cccc(C#N)c3)cs2)N=C(N)S1 (racemic) and give its measured log10(IC50).
Response: 2.48

====

Kindly supply the reported IC50 values for the records listed here.
# System: Aβ42 production in H4 cells stably transfected with APP751 containing the Swedish mutation (H4 APP751 SWE clone 8.20)
# Test summary: Cellular assay for inhibition of Aβ1-42 production (H4 APP751 SWE clone 8.20)
# Assay type: cell-based
# Protocol conditions: H4 APP751 SWE clone 8.20 cells, 19 h incubation; Table 5A, 6-alkyl and 6-substituted phenyl thiazine examples
All answers are understood in nM, so give the number only.

Prompt: Recorded IC50 for COc1ccc([C@@H]2C[C@@H](c3ccc(F)c(-c4cncnc4)c3)N=C(N)S2)cc1OC (racemic) [Example 7] , please?
Response: 1700

Prompt: Which IC50 is listed for NC1=N[C@H](c2cccc(-c3cncnc3)c2)C[C@@H](Cc2ccccc2)S1 (racemic) ?
Response: 7400

Prompt: Requested field: IC50. Item: COc1ccc([C@@H]2C[C@@H](c3cccc(-c4cncnc4)c3)N=C(N)S2)cc1OC (racemic) [Example 3]
Response: 1100

Prompt: What value of IC50 has been recorded for this entry: N#Cc1ccc([C@@H]2C[C@@H](c3cccc(-c4cncnc4)c3)N=C(N)S2)cc1 (racemic)
Response: 1800

Prompt: Param item = COc1cccc([C@@H]2C[C@@H](c3cccc(-c4cncnc4)c3)N=C(N)S2)c1 (racemic) ; retrieve measured IC50.
Response: 2800

Prompt: What value of IC50 has been reported for the following molecule? COc1ccc([C@@H]2C[C@@H](c3ccc(F)c(-c4cncnc4)c3)N=C(N)S2)cc1OC (single isomer, unassigned) [Example 7A]
Response: 350

Prompt: For the molecule shown here, COc1ccc([C@@H]2C[C@@H](c3cc(-c4cncnc4)cs3)N=C(N)S2)cc1OC (racemic) , give the reported IC50.
Response: 8000

Prompt: Name the reported IC50 value associated with the molecule NC1=N[C@H](c2cccc(-c3cncnc3)c2)C[C@@H](c2ccc(OC(F)(F)F)cc2)S1 (racemic)
Response: 8900

Prompt: Look at this molecule and give its reported IC50. COc1ccc([C@@H]2C[C@@H](c3cc(-c4cncnc4)c(F)cc3F)N=C(N)S2)cc1OC (single isomer, unassigned) [Example 1A]
Response: 290

Prompt: # lookup: IC50 of C=CCC[C@@H]1C[C@@H](c2cccc(-c3cncnc3)c2)N=C(N)S1 (racemic)
Response: 14000

Prompt: What IC50 value was documented for this molecule, COc1ccc([C@@H]2C[C@@H](c3cc(-c4cncnc4)ccc3F)N=C(N)S2)cc1OC (single isomer, unassigned) [Example 8A] ?
Response: 460

Prompt: So what's the measured IC50 for this one? COc1ccc([C@@H]2C[C@@H](c3cccc(-c4cncnc4)c3)N=C(N)S2)cc1OC (single isomer, unassigned) [Example 3A]
Response: 1100

Prompt: For the molecule NC1=N[C@H](c2cccc(-c3cncnc3)c2)C[C@@H](c2ccc(Cl)cc2)S1 (racemic) , what IC50 is on record?
Response: 2700

Prompt: Which measured IC50 value corresponds to COc1ccc([C@@H]2C[C@@H](c3cccc(-c4cncnc4)c3)N=C(N)S2)cc1 (racemic) ?
Response: 3700

Prompt: What IC50 value was documented for this molecule, NC1=N[C@H](c2cccc(-c3cncnc3)c2)C[C@@H](c2ccc(F)cc2)S1 (racemic) ?
Response: 2600

Prompt: What value of IC50 has been recorded for this entry: COc1ccc([C@]23CCCCC2[C@@H](c2cccc(-c4cncnc4)c2)N=C(N)S3)cc1 (mixture of isomers)
Response: 3300

Prompt: I have this molecule here, COc1ccccc1[C@@H]1C[C@@H](c2cccc(-c3cncnc3)c2)N=C(N)S1 (racemic) , and I need its recorded IC50.
Response: 2400

Prompt: Report IC50 for CC#Cc1cncc(-c2cc([C@@H]3C[C@@H](c4ccc(OC)c(OC)c4)SC(N)=N3)c(F)cc2F)c1 (racemic) please.
Response: 1000

Prompt: # query: IC50 of entry NC1=N[C@H](c2cccc(-c3cncnc3)c2)C[C@@H](C2CCCCC2)S1 (racemic)
Response: 3800

Hello, the source for this data is patent US9475784B2, in case you need it.
